Quick reference: % inhibition of SMAD7 mRNA expression of the listed items.
tested on: human SMAD7 mRNA; assay: Antisense inhibition of human SMAD7 mRNA expression in Hep3B cells by 5-10-5 MOE gapmers, single concentration, electroporation, RT-PCR (Example 1, Study 1 and 2); type: cell-based; details: Study 2, electroporation with 15,000 nM antisense oligonucleotide, 5-10-5 MOE gapmers targeting SEQ ID NO: 1 and 2
Strand notation (5' to 3'): a small letter for the sugar, then the base; units joined by * are phosphorothioate-linked, units joined directly phosphodiester-linked; [ ] holds rarer units or linkages, { } end groups; capitals alone tell only the bases. e = 2'-O-(2-methoxyethyl) (MOE); [5mC] = 5-methylcytosine; d = 2'-deoxy (DNA)
Provide the measurement as a number trailed by its unit.

Example cases with answers are listed next.
- 771480 (antisense eA*eG*e[5mC]*e[5mC]*eT*dT*dG*dA*dT*dG*dG*dA*dG*dA*dA*eA*e[5mC]*e[5mC]*eG*eG) [compound 771480]: 46%
- 771540 (antisense eT*e[5mC]*eA*eT*eA*dA*dG*d[5mC]*dT*dA*dT*dT*dT*d[5mC]*dT*e[5mC]*eA*eA*eA*eG) [compound 771540]: 0%

Challenge: Using the record for 771663 (antisense eT*eT*e[5mC]*e[5mC]*eA*dA*dT*dG*dA*dG*dA*dA*dT*dG*d[5mC]*eT*eT*e[5mC]*eT*e[5mC]) [compound 771663] , state its measured % inhibition of SMAD7 mRNA expression.
Response given: 56%

Challenge: Using the record for 771469 (antisense eT*eT*e[5mC]*eT*eG*d[5mC]*dA*d[5mC]*d[5mC]*dA*dG*d[5mC]*dT*dG*dA*e[5mC]*eT*e[5mC]*eT*eT) [compound 771469] , state its measured % inhibition of SMAD7 mRNA expression.
Response given: 13%

Challenge: Using the record for 771684 (antisense eA*eT*eT*eT*eG*dG*d[5mC]*dA*dT*dT*dT*dG*dT*dT*dA*eT*eT*eT*eG*e[5mC]) [compound 771684] , state its measured % inhibition of SMAD7 mRNA expression.
Response given: 0%

Challenge: Using the record for 771471 (antisense eG*e[5mC]*eT*e[5mC]*e[5mC]*dG*d[5mC]*dA*d[5mC]*d[5mC]*dT*dT*d[5mC]*dT*dG*e[5mC]*eA*e[5mC]*e[5mC]*eA) [compound 771471] , state its measured % inhibition of SMAD7 mRNA expression.
Response given: 43%

Challenge: Using the record for 771472 (antisense eA*eT*eT*eT*eT*dG*d[5mC]*dT*d[5mC]*d[5mC]*dG*d[5mC]*dA*d[5mC]*d[5mC]*eT*eT*e[5mC]*eT*eG) [compound 771472] , state its measured % inhibition of SMAD7 mRNA expression.
Response given: 0%

Challenge: Using the record for 771503 (antisense eG*e[5mC]*eT*e[5mC]*eA*d[5mC]*dG*d[5mC]*dT*d[5mC]*dT*dG*dT*d[5mC]*d[5mC]*e[5mC]*e[5mC]*eT*e[5mC]*e[5mC]) [compound 771503] , state its measured % inhibition of SMAD7 mRNA expression.
Response given: 27%
